Tested on: mPer2Luc MEF
procedure_summary: PER2::LUC luminescence relative to vehicle control (fold of vehicle); higher = higher PER2::LUC reporter signal
condition_set: time after treatment 30 h; 10 µM
The full ranking holds about 5,300 compounds; the median of “PER2::LUC luminescence relative to vehicle control” is about 0.96, and the highest 2% start at about 1.3. Many of the other results were omitted from the sample, so the highest values are more common in it than they were.
Overview of reported PER2::LUC luminescence across a group of molecules:
// print number alone

Example results:
structure_string	meas_value
C#CCN(C)CCCOc1ccc(Cl)cc1Cl	1.37
COc1cccc(/C=N/N(C(=O)C(F)(F)F)c2ccc(C)cc2C)c1	0.768
Cn1nnc(-c2ccc(-c3ccc(N4C[C@@H](CO)OC4=O)cc3F)cn2)n1	1.09
CC(C)Oc1ccc2c(=O)c(-c3ccccc3)coc2c1	1.92

In plain terms, COc1ccc(-c2coc3cc(O)ccc3c2=O)cc1 has a documented PER2::LUC luminescence of 1.97
